Each recorded value in this set is attributed to PubChem BioAssay (Tox21).

Test: qHTS assay to identify small molecule antagonists of the estrogen related receptor (ERR) signaling pathway from Tox21 library (AID 1224848); further: nearly all actives have a fitted effect of over 50% in size
Conditions: ERR reporter cell line, luciferase antagonist mode, 18 h; series mostly up to 92.4 µM
Inconclusive results are not listed. Calls of active or inactive are those of the source. The call rests on the fitted dose curve; in most records, active means well fitted inhibition curve with a large enough effect in the repeat runs; inconclusive means weak or mixed curves; inactive means no such curve, though single readings can be large or run the other way.
Lab note: assign the record to one of 1 = active, 0 = inactive

Example results:
{"COMPOUND": "Nc1c2ccccc2nc2ccccc12", "LABEL VALUE": 1}
{"COMPOUND": "OCCN1CCN(CC/C=C2/c3ccccc3Sc3ccc(C(F)(F)F)cc32)CC1", "LABEL VALUE": 1}

Exercise: So what was the verdict on Clc1ccc2cc3ccccc3cc2c1 in this test?
Solution: 0

Exercise: So what was the verdict on ON=C1CCCC1 in this test?
Solution: 1

Exercise: So what was the verdict on CS(=O)(=O)CCNCc1ccc(-c2ccc3ncnc(Nc4ccc(OCc5cccc(F)c5)c(Cl)c4)c3c2)o1 in this test?
Solution: 1

Exercise: So what was the verdict on C=C(C)C(=O)OCC(O)COc1ccc(C(C)(C)c2ccc(OCC(O)COC(=O)C(=C)C)cc2)cc1 (configuration not stated) in this test?
Solution: 1

Exercise: So what was the verdict on CCc1cc(Cc2cc(CC)cc(C(C)(C)C)c2O)c(O)c(C(C)(C)C)c1 in this test?
Solution: 1

Exercise: So what was the verdict on COc1cccc(N)c1 in this test?
Solution: 0

Exercise: So what was the verdict on C/C=C(\C)C(=O)OCc1ccccc1 in this test?
Solution: 0

Exercise: So what was the verdict on CCN1/C(=C/C=C/c2sc3ccccc3[n+]2CC)Sc2ccccc21 in this test?
Solution: 1

Exercise: So what was the verdict on COc1c(C)c2c(c(O)c1C/C=C(\C)CCC(=O)O)C(=O)OC2 in this test?
Solution: 0

Exercise: So what was the verdict on CCCCCCCC[N+](CCCCCCCC)(CCCCCCCC)CCCCCCCC in this test?
Solution: 1
